// provenance: ChEMBL document CHEMBL1133352

Study System: Endothelin receptor type B (Homo sapiens, UniProt P24530)
Sequence (P24530 whole entry): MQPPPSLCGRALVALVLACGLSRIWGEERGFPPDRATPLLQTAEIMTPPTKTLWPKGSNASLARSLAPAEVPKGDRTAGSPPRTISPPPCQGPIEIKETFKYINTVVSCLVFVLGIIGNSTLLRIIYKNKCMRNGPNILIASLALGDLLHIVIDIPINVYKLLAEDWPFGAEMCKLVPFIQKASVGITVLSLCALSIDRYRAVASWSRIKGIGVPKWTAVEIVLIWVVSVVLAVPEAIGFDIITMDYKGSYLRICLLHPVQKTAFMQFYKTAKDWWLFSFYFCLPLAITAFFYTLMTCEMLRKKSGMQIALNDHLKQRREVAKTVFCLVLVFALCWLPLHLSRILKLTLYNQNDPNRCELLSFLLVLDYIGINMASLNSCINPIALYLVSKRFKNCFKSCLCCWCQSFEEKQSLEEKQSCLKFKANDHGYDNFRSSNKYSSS
Test Details: Tested for binding affinity towards human Endothelin B receptor
Assignment: determine reported IC50 for the given compounds.

// query Using the record for "C/C=C/C=C/C(=O)O[C@@H]1C=C2COC(=O)[C@]2(O)CC1" , report its IC50.
// result > 25 µM

// query Using the record for C/C=C/C=C/C(=O)O[C@@H]1C=C2COC(OC)[C@]2(O)CC1 (stereo partly drawn) , report its IC50.
// result > 25 µM

// query Using the record for C/C=C/C=C/C(=O)O[C@@H]1C=C2COC(O)[C@]2(O)CC1 (stereo partly drawn) , report its IC50.
// result > 25 µM

====

Study System: UniProtKB P25101
Sequence (P25101 whole entry): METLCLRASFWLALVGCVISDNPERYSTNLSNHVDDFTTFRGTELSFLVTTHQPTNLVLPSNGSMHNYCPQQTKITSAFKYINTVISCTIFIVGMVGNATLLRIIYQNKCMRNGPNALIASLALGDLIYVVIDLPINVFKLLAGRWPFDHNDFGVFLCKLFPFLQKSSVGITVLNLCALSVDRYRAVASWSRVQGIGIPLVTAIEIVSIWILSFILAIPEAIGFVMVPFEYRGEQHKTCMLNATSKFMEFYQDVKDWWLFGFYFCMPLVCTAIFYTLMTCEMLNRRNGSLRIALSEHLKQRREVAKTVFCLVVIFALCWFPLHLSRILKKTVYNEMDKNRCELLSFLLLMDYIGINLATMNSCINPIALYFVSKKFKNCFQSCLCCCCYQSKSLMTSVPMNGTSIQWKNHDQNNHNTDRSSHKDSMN
Parameter Measured: pIC50
Just the number, please; pIC50 means minus log10 of the concentration in mol/L.

// query Using the record for C/C=C/C=C/C(=O)O[C@@H]1C=C2COC(OC)[C@]2(O)CC1 (stereo partly drawn) , report its pIC50.
// result 5.09

// query Using the record for "C/C=C/C=C/C(=O)O[C@@H]1C=C2COC(=O)[C@]2(O)CC1" , report its pIC50.
// result 5.59
